For each of the molecules below, state its inhibition.
test-system: Virion infectivity factor (Human immunodeficiency virus type 1 group M subtype B (isolate BH10)) + Virion infectivity factor (Human immunodeficiency virus type 1 group M subtype B (isolate BRU/LAI)) + Virion infectivity factor (Human immunodeficiency virus type 1 group M subtype B (isolate PCV12)) + Virion infectivity factor (Human immunodeficiency virus type 1 group M subtype B (isolate HXB2)) + DNA dC->dU-editing enzyme APOBEC-3G (Homo sapiens) (UniProt P69720+P69721+P69722+P69723+Q9HC16)
procedure-text: inhibitors of Vif binding to APOBEC3G peptide, primary screen, biochemical, TR-FRET, GST-Vif 1-94, biotin-A3G peptide, dose response retest (AID 1117319);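 note: Vif residues 1-94 fused to GST binding biotinylated APOBEC3G peptide 110-148; 0% = full assay without inhibitor and 100% = GST in place of GST-Vif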
condition-set: stronger effect = higher value
The campaign covered roughly 260,000 compounds. About 1,500 (0.58%) were called active. About 5% were inconclusive and are not listed. A selection follows. Results with a measured potency or affinity are listed apart.
Numbers only, in %.

Cc1c(NS(=O)(=O)c2ccc(Cl)c(C(=O)OC(C)C(=O)NCc3ccco3)c2)c(=O)n(-c2ccccc2)n1C (configuration not stated): 5.59

For every listed record, write down its inhibition.
1. Cc1nnc(SCC2=C(C(=O)O)N3C(=O)C(NC(=O)Cc4ccccc4)C3SC2)s1 (configuration not stated)
2. CC(=O)c1ccc(NC(=O)c2cnsn2)cc1
3. CS/C(=N\S(=O)(=O)c1ccc(N)cc1)NS(=O)(=O)c1cccs1
4. CCOc1cc(C2Nc3ccccc3C(=O)N2c2ccccc2)ccc1O (configuration not stated)

1: 7.27; 2: 4.53; 3: 4.67; 4: 24.7

For each entry beneath this line, provide reported inhibition.
1. O=C(Nc1ccc(CN2CCCCC2)cc1)c1cccc(F)c1
2. Cc1ccn2cc(C34CC5CC(CC(C5)C3)C4)nc2c1

1. -2.63
2. 17

Give me inhibition for each of these molecules, listed below.
1. COc1cccc(C2CC(c3cccs3)=NN2C(=O)CSC2=NN3CCCC(=O)N=C3S2)c1OC (configuration not stated)
2. COc1cc(C2Nc3ccccc3C(=O)N2c2ccccc2OC)ccc1O (configuration not stated)
3. CCOC(=O)C1=C(CC)Nc2ccccc2N=C1NC(=O)c1ccc(S(=O)(=O)N2CCOCC2)cc1
4. CNC(=S)Nc1ccccc1-c1ccccc1
5. COc1ccc(CCNC(=O)COC(=O)/C=C/c2ccc(OCC#N)c(OC)c2)cc1OC
6. CC(/C=N/NC(=O)Cc1cccs1)=C\c1ccco1

1. 0.81
2. -3.51
3. -4.07
4. -7.68
5. 5.39
6. 12.2

Your task in this section: give inhibition for each listed record.
1. CCOC(=O)C1CCCN(c2ncnc3c2cnn3-c2ccc(OC)cc2)C1 (configuration not stated)
2. C/C(=N\NC(=O)Cc1cccn1C)c1ccco1
3. NS(=O)(=O)c1ccc(Cl)cc1[N+](=O)[O-]
4. CCOC(=O)C(=O)Cc1nc2ccccc2s1
5. CCOC(=O)C1CCN(c2ncnc3c2cnn3-c2ccc(Cl)cc2)CC1

1. -2.45
2. 20.2
3. -11.6
4. -1.72
5. -26.4

* * *

test-system: Virion infectivity factor (Human immunodeficiency virus type 1 group M subtype B (isolate BH10)) + Virion infectivity factor (Human immunodeficiency virus type 1 group M subtype B (isolate BRU/LAI)) + Virion infectivity factor (Human immunodeficiency virus type 1 group M subtype B (isolate PCV12)) + Virion infectivity factor (Human immunodeficiency virus type 1 group M subtype B (isolate HXB2)) + DNA dC->dU-editing enzyme APOBEC-3G (Homo sapiens) (UniProt P69720+P69721+P69722+P69723+Q9HC16)
procedure-text: inhibitors of Vif binding to APOBEC3G peptide, primary screen, biochemical, TR-FRET, GST-Vif 1-94, biotin-A3G peptide, dose response retest (AID 1117319);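 note: Vif residues 1-94 fused to GST binding biotinylated APOBEC3G peptide 110-148; 0% = full assay without inhibitor and 100% = GST in place of GST-Vif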
condition-set: stronger effect = higher value
About 1,500 (0.58%) of roughly 260,000 compounds were called active. Another 5% or so got no clear call; they are omitted. Not all results are given here. Potency and affinity values are given separately.
Task for the reader: assign each of the following compounds its reported inhibition.
Numbers only, in %.

CCO[C@H]1OC(C(=O)N2CCN(Cc3ccc4c(c3)OCO4)CC2)=C[C@@H](c2cn(C(C)=O)c3ccccc23)[C@@H]1CCCO: -9.76
COC(=O)CCC(=O)OC1(C)C(=O)C=C2C=C(C3CC3)N(c3ccccc3)C=C2C1=O (stereo not drawn): 21.6

I need inhibition for every entry listed below, if you could help.
1. Cc1sc2ncnc(NCc3ccco3)c2c1C
2. CCC(C)C1=CC(=Nc2c(C)n(C)n(-c3ccccc3)c2=O)C=C(C(C)CC)C1=O (stereo not drawn)
3. CCN(CC)C(=O)[C@H]1C[C@H](CC(=O)NC(C)(C)C)C(=O)N2CCc3c([nH]c4ccc(Cl)cc34)[C@]12C
4. CC(C)n1ncc2c(C(=O)NCCc3ccc(S(N)(=O)=O)cc3)cc(C3CC3)nc21

1: 23.1; 2: 9.76; 3: -8.68; 4: 1.54

Provide reported inhibition for each item, in the same order as listed.
1. Nn1cnnc1N/N=C/c1ccc(Cl)cc1Cl
2. C=CCN1C=C2C(=O)C(C)(OC(=O)C3CCCC3)C(=O)C=C2C=C1c1ccsc1 (stereo not drawn)
3. COc1ccc(-c2c(C)n([O-])c(C)c(-c3ccccc3)[n+]2=O)cc1OC
4. COc1ccc(C(=O)NCc2nnc(SCC(=O)Nc3nc4ccccc4s3)o2)cc1OC
5. O=C(Nc1cccc(C(F)(F)F)c1)Oc1ccccc1N1CCOCC1
6. CC(C(=O)NCc1ccc2c(c1)OCO2)c1ccc([N+](=O)[O-])cc1 (stereo not drawn)
7. Cc1onc(-c2ccccc2)c1C(=O)N1CCN(c2ccc([N+](=O)[O-])cc2)CC1

1. -0.88
2. 22.2
3. -6.67
4. 0.33
5. 4.5
6. 6.03
7. -0.35

Fill in inhibition for each of the 6 compounds listed.
1. Cc1[nH]ccc(=O)c1OCc1ccccc1
2. Cc1noc(NS(=O)(=O)c2ccc(NC(=O)CCCOc3ccc(Cl)cc3Cl)cc2)c1C
3. COC/C=C/C1=CC2=CC(=O)C(C)(OC(=O)c3cnc4ccccc4n3)C(=O)C2=CN1C(CO)CO (stereo not drawn)
4. Cc1cc(=O)n2nc(-c3ccc(C(F)(F)F)cc3)sc2n1
5. N#Cc1ccccc1Sc1ccccc1C(=O)Nc1ccc(Br)cc1
6. O=[N+]([O-])c1ccccc1N/N=C/c1ccc2c(c1)OCO2

[6.47, 2.83, 19.5, 0.75, 5.46, 26.8]

For each entry beneath this line, provide reported inhibition.
1. O=C(Nc1ccccc1)N1CCCC2CCCCC21 (stereo not drawn)
2. O=C(O)/C=C/c1ccccc1Oc1ccccc1
3. O=C(O)c1cccc(S(=O)(=O)Nc2cccc(S(=O)(=O)N3CCCCCC3)c2)c1
4. Cc1c(N=C2C=CC(=O)c3ccccc32)c(=O)n(-c2ccccc2)n1C
5. CCSc1nc2c(sc3nc(C)cc(C)c32)c(=O)[nH]1
6. CC(C)CCNC(=O)c1cccnc1Sc1ccccc1

7.94
-6.82
4
25
-3.63
-0.39
